Parameter pIC50: see the listing below.
biological target: BRD4 bromo domain 2 [BRD4(2)] (Homo sapiens, UniProt O60885); construct: N-terminally His6-tagged BRD4(2) (amino acids 357-445); assay: BRD4/acetylated peptide H4 binding assay (TR-FRET), BRD4 bromo domain 2; conditions: inhibition of BRD4(2)/Ac-H4 peptide interaction
To interpret pIC50, take it as minus log10 of a concentration measured in moles per litre.

Entry C[C@@H]1C(=O)N(C)c2ccc(Nc3cccc(S(=O)(=O)N[C@H]4CC[C@H](N5CCN(CC6CC6)CC5)CC4)c3)nc2N1C1CCN(C(=O)OC(C)(C)C)CC1 ; assay system BRD4 bromo domain 2 [BRD4(2)] (Homo sapiens, UniProt O60885); pIC50 recorded at 7.07

Record C[C@@H]1C(=O)N(C)c2ccc(Nc3cccc(S(=O)(=O)N4CCN(CC(F)(F)F)CC4)c3)nc2N1C1CCNCC1 has BRD4 bromo domain 2 [BRD4(2)] (Homo sapiens, UniProt O60885) pIC50 equal to 7.07

With BRD4 bromo domain 2 [BRD4(2)] (Homo sapiens, UniProt O60885) as the test system, C[C@@H]1C(=O)N(C)c2ccc(Nc3cccc(C(=O)NC4CCC(O)CC4)c3)nc2N1C1CCCCC1 (stereo partly shown) showed pIC50 of 6.90

Item COc1ccc(C(=O)NCCN(C)C)cc1Nc1ccc2c(n1)N(C1CCOCC1)[C@H](C)C(=O)N2C was tested on BRD4 bromo domain 2 [BRD4(2)] (Homo sapiens, UniProt O60885); the reported pIC50 is 6.88
